Molecular target: Cry2 PHR (L348F)-p65AD-NLSx2 fusion construct as released from the TetR (I194T, 1-206)-CIB1 (-NLS)-T2A-Cry2 PHR (L348F)-p65AD-NLSx2 fusion construct
Sequence (Q96524 other isoform, or with tags, fused parts or gaps L348F I194T L348F L348F I194T L348F): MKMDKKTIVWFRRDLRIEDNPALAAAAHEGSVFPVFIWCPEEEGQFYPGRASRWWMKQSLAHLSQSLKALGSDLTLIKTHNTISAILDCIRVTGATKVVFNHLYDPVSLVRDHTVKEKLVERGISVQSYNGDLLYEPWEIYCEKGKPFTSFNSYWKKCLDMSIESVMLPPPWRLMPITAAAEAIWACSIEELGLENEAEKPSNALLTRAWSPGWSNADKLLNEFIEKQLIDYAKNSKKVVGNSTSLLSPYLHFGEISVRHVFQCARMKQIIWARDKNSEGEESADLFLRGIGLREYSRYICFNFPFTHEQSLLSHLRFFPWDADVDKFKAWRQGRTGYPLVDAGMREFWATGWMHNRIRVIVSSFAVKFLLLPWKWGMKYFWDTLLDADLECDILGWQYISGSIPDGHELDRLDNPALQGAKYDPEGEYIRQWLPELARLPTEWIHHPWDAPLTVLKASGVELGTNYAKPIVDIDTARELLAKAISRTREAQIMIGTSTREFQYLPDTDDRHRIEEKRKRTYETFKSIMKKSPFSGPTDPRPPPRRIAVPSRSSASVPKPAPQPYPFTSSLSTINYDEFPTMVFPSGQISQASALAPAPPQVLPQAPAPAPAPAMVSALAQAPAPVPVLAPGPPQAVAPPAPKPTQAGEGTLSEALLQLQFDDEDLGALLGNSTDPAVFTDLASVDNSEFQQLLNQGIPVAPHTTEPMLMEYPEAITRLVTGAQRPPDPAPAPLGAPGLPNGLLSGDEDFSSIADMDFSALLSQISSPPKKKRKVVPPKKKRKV
Assay: cell-based or functional assay

>  <binder>
TetR (I194T, 1-206)-CIB1 (-NLS) fusion construct as released from the TetR (I194T, 1-206)-CIB1 (-NLS)-T2A-Cry2 PHR (L348F)-p65AD-NLSx2 fusion construct (protein, part only, residual T2A residues at C-terminus) MARLDKSKVINSALELLNEVGIEGLTTRKLAQKLGVEQPTLYWHVKNKRALLDALAIEMLDRHHTHFCPLEGESWQDFLRNNAKSFRCALLSHRDGAKVHLGTRPTEKQYETLENQLAFLCQQGFSLENALYALSAVGHFTLGCVLEDQEHQVAKEERETPTTDSMPPLLRQAIELFDHQGAEPAFLFGLELITCGLEKQLKCESGSPKKKHMEFNGAIGGDLLLNFPDMSVLERQRAHLKYLNPTFDSPLAGFFADSSMITGGEMDSYLSTAGLNLPMMYGETTVEGDSRLSISPETTLGTGNFKAAKFDTETKDCNEAAKKMTMNRDDLVEEGEEEKSKITEQNNGSTKSIKKMKHKAKKEENNFSNDSSKVTKELEKTDYI

>  <unit of measure>
relative

>  <Ub-ELuc luciferase, Light, Dox 0 ng/mL>
76.7

$$$$
>  <binder>
TetR (I194T, H100Y, 1-206)-CIB1 (-NLS) from the T2A construct (protein, part only, T2A residues at C-terminus) MARLDKSKVINSALELLNEVGIEGLTTRKLAQKLGVEQPTLYWHVKNKRALLDALAIEMLDRHHTHFCPLEGESWQDFLRNNAKSFRCALLSHRDGAKVYLGTRPTEKQYETLENQLAFLCQQGFSLENALYALSAVGHFTLGCVLEDQEHQVAKEERETPTTDSMPPLLRQAIELFDHQGAEPAFLFGLELITCGLEKQLKCESGSPKKKHMEFNGAIGGDLLLNFPDMSVLERQRAHLKYLNPTFDSPLAGFFADSSMITGGEMDSYLSTAGLNLPMMYGETTVEGDSRLSISPETTLGTGNFKAAKFDTETKDCNEAAKKMTMNRDDLVEEGEEEKSKITEQNNGSTKSIKKMKHKAKKEENNFSNDSSKVTKELEKTDYI

>  <unit of measure>
relative

>  <Ub-ELuc luciferase, Light, Dox 0 ng/mL>
58.1

$$$$
>  <binder>
rTetR (I194T, V10 mutation, 1-206)-CIB1 (-NLS) from the T2A construct (protein, part only; not given: Leftover T2A residues, part only) chain, part: MARLDKSKVINSALELLNGVGIEGLTTRKLAQKLGVEQPTLYWHVKNKRALLDALPIEMLDRHHTHSCPLEGESWQDFLRNNAKSYRCALLSHRDGAKVHLGTRPTEKQYETLENQLAFLCQQGFSLENALYALSAVGHFTLGCVLEEQEHQVAKEERETPTTDSMPPLLKQAIELFDRQGAEPAFLFGLELITCGLEKQLKCESGSPKKKHMEFNGAIGGDLLLNFPDMSVLERQRAHLKYLNPTFDSPLAGFFADSSMITGGEMDSYLSTAGLNLPMMYGETTVEGDSRLSISPETTLGTGNFKAAKFDTETKDCNEAAKKMTMNRDDLVEEGEEEKSKITEQNNGSTKSIKKMKHKAKKEENNFSNDSSKVTKELEKTDYI

>  <unit of measure>
relative

>  <Ub-ELuc luciferase, Light, Dox 0 ng/mL>
0.2

$$$$
>  <binder>
rTetR (I194T, rtTA mutation, 1-206)-CIB1 (-NLS) from the T2A construct (protein, part only; not given: Leftover T2A residues, part only) chain, part: MARLDKSKVINSALELLNEVGIEGLTTRKLAQKLGVEQPTLYWHVKNKRALLDALAIEMLDRHHTHFCPLKGESWQDFLRNNAKSFRCALLSHRNGAKVHSDTRPTEKQYETLENQLAFLCQQGFSLENALYALSAVGHFTLGCVLEDQEHQVAKEERETPTTDSMPPLLRQAIELFDHQGAEPAFLFGLELITCGLEKQLKCESGSPKKKHMEFNGAIGGDLLLNFPDMSVLERQRAHLKYLNPTFDSPLAGFFADSSMITGGEMDSYLSTAGLNLPMMYGETTVEGDSRLSISPETTLGTGNFKAAKFDTETKDCNEAAKKMTMNRDDLVEEGEEEKSKITEQNNGSTKSIKKMKHKAKKEENNFSNDSSKVTKELEKTDYI

>  <unit of measure>
relative

>  <Ub-ELuc luciferase, Light, Dox 0 ng/mL>
0.5

$$$$
